Reported values of stoichiometry N for individual entries
biological target: the molecule itself; experiment: SEC
Answer as a number with no unit attached.

- Salmonella typhimurium QAPRTase R152A (enzyme) MPPRRYNPDDRRDALLERINLDIPAAVAQALREDLGGEVDAGNDITAQLLPADTQAHATVITREDGVFCGKRWVEEVFIQLAGDDVRLTWHVDDGDAIHANQTVFELNGPARVLLTGERTALNFVQTLSGVASEVRRYVGLLAGTQTQLLDTAKTLPGLRTALKYAVLCGGGANHRLGLTDAFLIKENHIIASGSVRQAVEKAFWLHPDVPVEVEVENLDELDDALKAGADIIMLDNFNTDQMREAVKRVNGQARLEVSGNVTAETLREFAETGVDFISVGALTKHVRALDLSMRFC: 2
- Salmonella typhimurium QAPRTase H188A (enzyme) MPPRRYNPDDRRDALLERINLDIPAAVAQALREDLGGEVDAGNDITAQLLPADTQAHATVITREDGVFCGKRWVEEVFIQLAGDDVRLTWHVDDGDAIHANQTVFELNGPARVLLTGERTALNFVQTLSGVASEVRRYVGLLAGTQTQLLDTRKTLPGLRTALKYAVLCGGGANHRLGLTDAFLIKENAIIASGSVRQAVEKAFWLHPDVPVEVEVENLDELDDALKAGADIIMLDNFNTDQMREAVKRVNGQARLEVSGNVTAETLREFAETGVDFISVGALTKHVRALDLSMRFC: 2
- Salmonella typhimurium QAPRTase K185A (enzyme) MPPRRYNPDDRRDALLERINLDIPAAVAQALREDLGGEVDAGNDITAQLLPADTQAHATVITREDGVFCGKRWVEEVFIQLAGDDVRLTWHVDDGDAIHANQTVFELNGPARVLLTGERTALNFVQTLSGVASEVRRYVGLLAGTQTQLLDTRKTLPGLRTALKYAVLCGGGANHRLGLTDAFLIAENHIIASGSVRQAVEKAFWLHPDVPVEVEVENLDELDDALKAGADIIMLDNFNTDQMREAVKRVNGQARLEVSGNVTAETLREFAETGVDFISVGALTKHVRALDLSMRFC: 2
- Salmonella typhimurium QAPRTase R118A (enzyme) MPPRRYNPDDRRDALLERINLDIPAAVAQALREDLGGEVDAGNDITAQLLPADTQAHATVITREDGVFCGKRWVEEVFIQLAGDDVRLTWHVDDGDAIHANQTVFELNGPARVLLTGEATALNFVQTLSGVASEVRRYVGLLAGTQTQLLDTRKTLPGLRTALKYAVLCGGGANHRLGLTDAFLIKENHIIASGSVRQAVEKAFWLHPDVPVEVEVENLDELDDALKAGADIIMLDNFNTDQMREAVKRVNGQARLEVSGNVTAETLREFAETGVDFISVGALTKHVRALDLSMRFC: 2

Field request: stoichiometry N | item: Salmonella typhimurium QAPRTase R175A (enzyme) MPPRRYNPDDRRDALLERINLDIPAAVAQALREDLGGEVDAGNDITAQLLPADTQAHATVITREDGVFCGKRWVEEVFIQLAGDDVRLTWHVDDGDAIHANQTVFELNGPARVLLTGERTALNFVQTLSGVASEVRRYVGLLAGTQTQLLDTRKTLPGLRTALKYAVLCGGGANHALGLTDAFLIKENHIIASGSVRQAVEKAFWLHPDVPVEVEVENLDELDDALKAGADIIMLDNFNTDQMREAVKRVNGQARLEVSGNVTAETLREFAETGVDFISVGALTKHVRALDLSMRFC
2

Data credit: paper PMC2837848
